# Test System: Human cGAS amino acids 155-522 (Homo sapiens (Human), UniProt Q8N884)
# Sequence (Q8N884 157-522): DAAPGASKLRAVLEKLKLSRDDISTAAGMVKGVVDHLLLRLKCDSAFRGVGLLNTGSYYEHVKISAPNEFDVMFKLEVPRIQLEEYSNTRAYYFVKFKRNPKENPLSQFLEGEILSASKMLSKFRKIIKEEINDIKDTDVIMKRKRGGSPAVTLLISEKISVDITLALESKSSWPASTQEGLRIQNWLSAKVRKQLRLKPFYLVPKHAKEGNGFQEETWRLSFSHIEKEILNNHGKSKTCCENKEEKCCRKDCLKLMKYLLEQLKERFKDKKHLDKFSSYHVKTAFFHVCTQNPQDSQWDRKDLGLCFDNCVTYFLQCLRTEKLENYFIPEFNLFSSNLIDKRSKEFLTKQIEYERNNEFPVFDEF
# Assay Method Text: cGAS biochemical activity assay (ATP remaining, Kinase-Glo Max luminescence)
# Experimental Context: human cGAS 155-522, ATP remaining (Kinase-Glo Max); read-out: cGAS IC50
Quantity Kind: IC50

Some solved cases for reference:
[
  {
    "Molecule": "Cc1[nH]c2c(-c3ccccc3)c(C(F)(F)F)nn2c(=O)c1-c1nnc(-c2cccnc2O)o1",
    "Result": "< 20 µM"
  },
  {
    "Molecule": "Cc1[nH]c2c(-c3ccccc3)c(C(F)(F)F)nn2c(=O)c1-c1nnc(C2CCCCO2)o1 (centres unmarked)",
    "Result": "< 20 µM"
  },
  {
    "Molecule": "COc1cccc2oc(-c3c(N)[nH]c4c(-c5ccccc5)c(C(F)(F)F)nn4c3=O)nc12",
    "Result": "< 20 µM"
  },
  {
    "Molecule": "Cc1[nH]c2c(-c3ccccc3)c(C(F)(F)F)nn2c(=O)c1-c1nc2c(N(C)C)cccc2o1",
    "Result": "< 20 µM"
  },
  {
    "Molecule": "Cc1[nH]c2c(-c3ccccc3)c(C(F)(F)F)nn2c(=O)c1C(=O)Nc1cccc(OCc2ccccc2)c1",
    "Result": "< 20 µM"
  }
]

Ask: Please report the recorded IC50 for COc1ccc(C(C)=O)c2oc(-c3c(C)[nH]c4c(-c5ccccc5)c(C(F)(F)F)nn4c3=O)nc12 .
Reply: < 20 µM

Ask: Now try COc1cc(CO)cc2oc(-c3c(C)[nH]c4c(-c5ccccc5)c(C(F)(F)F)nn4c3=O)nc12 .
Reply: < 20 µM

Ask: Now try COc1cccc2oc(-c3c(COCC4CNC(=O)O4)[nH]c4c(-c5ccccc5)c(C#N)nn4c3=O)nc12 (centres unmarked) .
Reply: < 20 µM

Ask: Now try Cc1[nH]c2c(-c3ccccc3)c(C(F)(F)F)nn2c(=O)c1-c1nnc(-c2nccc(O)n2)o1 .
Reply: < 20 µM

Ask: Now try COc1cccc2[nH]c(-c3c(C)[nH]c4c(-c5ccccc5)c(C(F)(F)F)nn4c3=O)nc12 .
Reply: < 20 µM

Ask: Now try COc1cccc(NC(=O)c2c(C)[nH]c3c(-c4ccccc4)c(C(F)(F)F)nn3c2=O)c1Br .
Reply: 20 to 250 µM

Ask: Now try Cc1[nH]c2c(-c3ccccc3)c(C#N)nn2c(=O)c1-c1nc2cccc(N)c2o1 .
Reply: < 20 µM
